Each recorded value in this set is attributed to patent US20110251230A1.

Tested on: NRF2-ARE pathway in the CHO 4× ARE-TK cell line
Assay: ARE reporter assay in CHO 4×ARE-TK-GFP cell line (GFP induction, EthD1 toxicity)
Settings: CHO ARE reporter assay
Entries and their Lowest dose with toxicity
recorded-metric: Lowest dose with toxicity (µM)

INSERT INTO assay_data (compound, tested_system, units_label, value_measured) VALUES
  ('O=C1C=C2C=C[C@@H]3C[C@@]2(O1)[C@H]1CCCCN31', 'NRF2-ARE pathway in the CHO 4× ARE-TK cell line', 'µM', 30),
  ('CC(=O)O[C@@H]1C[C@H]2C(C)(C)C(=O)C=C[C@]2(C)[C@H]2CC[C@]3(C)C(=CC(=O)O[C@H]3c3ccoc3)[C@@]21C', 'NRF2-ARE pathway in the CHO 4× ARE-TK cell line', 'µM', 30),
  ('C[C@@H]1C(=O)O[C@H]2[C@H]1CC[C@@]1(C)C=CC(=O)[C@@]3(C)O[C@@]213 [epoxy(4,5α)-4,5-dihydrosantonin]', 'NRF2-ARE pathway in the CHO 4× ARE-TK cell line', 'µM', 100),
  ('C=CC(C1=CC(=O)C(OC)=CC1=O)c1ccccc1 (centres unmarked)', 'NRF2-ARE pathway in the CHO 4× ARE-TK cell line', 'µM', 100),
  ('CC1=C2C(=CO[C@H](C)[C@H]2C)C(O)=C(C(=O)O)C1=O', 'NRF2-ARE pathway in the CHO 4× ARE-TK cell line', 'µM', 30),
  ('ClC1=C(Cl)C2(Cl)C3C(Cl)C(Cl)CC3C1(Cl)C2(Cl)Cl (centres unmarked)', 'NRF2-ARE pathway in the CHO 4× ARE-TK cell line', 'µM', 100);

---

Test system: NSC34 mouse motor neuronal cells
Assay: NSC34 oxidative stress assay (serum withdrawal, DCF)
Settings: NSC34
recorded-metric: Lowest dose with toxicity

INSERT INTO measurements (compound, recorded_metric, value_measured) VALUES
  ('S=C=NCc1ccccc1 [Benzyl Isothiocyanate]', 'Lowest dose with toxicity', 'none'),
  ('COc1cccc(O)c1O', 'Lowest dose with toxicity', '0.3 µM'),
  ('C=CC(C1=CC(=O)C(OC)=CC1=O)c1ccccc1 (centres unmarked)', 'Lowest dose with toxicity', 'none'),
  ('CC1=C2C(=CO[C@H](C)[C@H]2C)C(O)=C(C(=O)O)C1=O', 'Lowest dose with toxicity', 'none'),
  ('C=C(C)C(=O)C(=CC(=O)O)OC', 'Lowest dose with toxicity', 'none');

---

Tested on: NSC34 mouse motor neuronal cells
Assay: NSC34 oxidative stress assay (serum withdrawal, DCF)
Conditions: NSC34
Counter-ions that a name gives are not always drawn.
recorded-metric: Lowest dose with toxicity

INSERT INTO results (compound, recorded_metric, value_measured) VALUES
  ('O=C(CCBr)N1CCN(C(=O)CCBr)CC1 [Pipobroman, reference compound]', 'Lowest dose with toxicity', 'none'),
  ('Cc1cc(O)c(C)c(O)c1C(=O)O [3 methylorsellinic acid]', 'Lowest dose with toxicity', '0.3 µM'),
  ('Oc1ccc(O)cc1 [hydroquinone, reference compound]', 'Lowest dose with toxicity', 'none'),
  ('COc1ccc(/C=C/C(=O)c2ccccc2)cc1 [4 methoxychalcone]', 'Lowest dose with toxicity', 'none'),
  ('C=C(C)/C=C1/C=CC(=O)C(C)=C1 [Retusoquinone]', 'Lowest dose with toxicity', 'none'),
  ('C=CC(C1=CC(=O)C=CC1=O)c1ccccc1 (stereo not drawn) [Dalbergione]', 'Lowest dose with toxicity', 'none'),
  ('C=C(CC)C(=O)c1ccc(OCC(=O)O)c(Cl)c1Cl [Ethacrynic acid, reference compound]', 'Lowest dose with toxicity', '10 µM'),
  ('O=C(CC[N+](=O)[O-])OC[C@H]1O[C@@H](O)[C@H](OC(=O)CC[N+](=O)[O-])[C@@H](OC(=O)CC[N+](=O)[O-])[C@@H]1OC(=O)CC[N+](=O)[O-] [endecaphyllin X]', 'Lowest dose with toxicity', '10 µM'),
  ('CC1(C)C(=O)C=C[C@]2(C)[C@H]3CC[C@@]4(C)[C@H](c5ccoc5)OC(=O)[C@H]5O[C@]54[C@]3(C)[C@H](O)C[C@@H]12 [Deacetylgedunin]', 'Lowest dose with toxicity', 'none'),
  ('CCCCCc1c2c(cc(O)c1C(=O)O)OC(=O)c1c(cc(OC)cc1C(=O)CCCC)O2 [Lobaric acid]', 'Lowest dose with toxicity', 'none'),
  ('COC(=O)[C@H](O)[C@H]1C(C)(C)[C@H](OC(C)=O)[C@@H]2CC3=C4CC(=O)O[C@@H](c5ccoc5)[C@]4(C)CC[C@@H]3[C@@]1(C)C2=O [swietenolide 3 acetate]', 'Lowest dose with toxicity', '0.3 µM'),
  ('CC1(C)C2CC(=O)O[C@@]3(C)C4=CC(=O)O[C@@H](c5ccoc5)[C@]4(C)CCC3[C@@]2(C)C=C[C@H]1O (stereo partly drawn) [Deoxyandirobin lactone]', 'Lowest dose with toxicity', 'none'),
  ('CC1=CC(=O)C(C(C)C)=CC1=O [Thymoquinone]', 'Lowest dose with toxicity', 'none'),
  ('CC(=O)O[C@@H]1CC2C(C)(C)C=CC(=O)[C@]2(C)C2CC[C@@]3(C)[C@H](c4ccoc4)OC(=O)C4OC43[C@@]21C (stereo partly drawn) [Isogedunin]', 'Lowest dose with toxicity', '1 µM'),
  ('COc1cc(O)c(C)c(O)c1 [2,6-dihydroxy-4-methoxytoluene]', 'Lowest dose with toxicity', 'none'),
  ('CC(=O)Oc1ccc(O)cc1 [4 acetoxyphenol]', 'Lowest dose with toxicity', 'none'),
  ('O=C1C=C2C=C[C@@H]3C[C@@]2(O1)[C@H]1CCCCN31 [Securinine]', 'Lowest dose with toxicity', 'none'),
  ('CC(=O)CCC(=O)O [levulinc acid, Levulinic acid]', 'Lowest dose with toxicity', 'none'),
  ('COc1ccc2c(c1)OC/C(=C/c1ccc(OC)c(OC)c1)C2=O [sappanone A trimethyl ether]', 'Lowest dose with toxicity', 'none'),
  ('CC(COc1ccccc1)NC(C)C(O)c1ccc(O)cc1 (stereo not drawn) [Isoxsuprine hydrochloride, reference compound]', 'Lowest dose with toxicity', 'none'),
  ('O=C(/C=C/c1ccc(O)cc1)c1ccc(O)cc1O [Isoliquintigenin, Isoliquiritigenin]', 'Lowest dose with toxicity', '1 µM');
